This collection of values is drawn from paper PMC11249646.

- tested_on: GST-CIB1 : F-scrambled peptide (Homo sapiens)
- Construct: made in house; host or cells: BL-21 plus RIL cells (E. coli)
- Sequence (Q99828 whole entry): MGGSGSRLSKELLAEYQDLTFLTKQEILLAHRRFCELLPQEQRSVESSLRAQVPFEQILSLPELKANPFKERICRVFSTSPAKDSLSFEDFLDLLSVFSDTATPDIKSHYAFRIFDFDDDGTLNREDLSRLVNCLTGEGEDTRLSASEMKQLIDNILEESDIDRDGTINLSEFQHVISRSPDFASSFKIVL
- assay_comment: FP scrambled-peptide counter screen, 384-well format
- Assay type: binding
- test_settings: F-scrambled peptide; read-out: 384-well COUNTERSCREEN IC50
observed_property: IC50 (µM)

INSERT INTO measurements (compound, output_unit, reported_relation, measured_value) VALUES
  ('CCc1ccc(/C=C2/SC(=S)NC2=O)cc1 [NCGC00185994-01]', 'µM', '>', 120),
  ('CCCCCc1c2c(cc(O)c1C(=O)O)OC(=O)c1c(cc(OC)cc1C(=O)CCCC)O2.O=C(O)C(F)(F)F [NCGC00095570-05]', 'µM', '=', 50.1),
  ('CCOC(=O)N1CCN([N+]([O-])=NOc2ccc([N+](=O)[O-])cc2[N+](=O)[O-])CC1 [NCGC00165815-03]', 'µM', '=', 15.8),
  ('CCN(CC)C(=S)SSC(=S)N(CC)CC [NCGC00016000-13, disulfiram, reference compound]', 'µM', '>', 120),
  ('O=[N+]([O-])c1cnc(Sc2nnc(O)n2-c2ccc3c(c2)OCCO3)s1 [NCGC00263145-01]', 'µM', '=', 89.1),
  ('COc1cc(/C=C2/N=C(c3ccccc3)OC2=O)c(F)cc1OCc1ccccc1 [NCGC00168015-01]', 'µM', '>', 120),
  ('Cc1ccc(S(=O)(=O)Nc2cc([N+](=O)[O-])ccc2C(=O)Nc2nc(-c3ccccc3)cs2)cc1.O=C(O)C(F)(F)F [NCGC00262992-01]', 'µM', '=', 79.4),
  ('Cc1cc(SCc2sc(-c3ccc(Cl)c(Cl)c3)nc2C)ccc1OCc1nnn[nH]1.O=C(O)C(F)(F)F [NCGC00344871-01]', 'µM', '=', 44.7),
  ('Cc1ccc(-c2csc(NC(=O)c3ccncc3NS(=O)(=O)c3ccc(C)cc3)n2)cc1.O=C(O)C(F)(F)F [NCGC00319008-01]', 'µM', '=', 8.9),
  ('O=C(Cc1ccc(Cl)c(Cl)c1)Nc1ccc(S(=O)(=O)Nc2ccon2)cc1.O=C(O)C(F)(F)F [NCGC00244858-03]', 'µM', '=', 25.1),
  ('O=C(O)C(F)(F)F.O=C(O)c1ccc(-c2ccc3ncnc(NCc4nccs4)c3c2)o1 [NCGC00229620-01]', 'µM', '=', 31.6),
  ('Cc1ccccc1S(=O)(=O)Nc1cnccc1C(=O)Nc1nc(-c2ccccc2)cs1.O=C(O)C(F)(F)F [NCGC00344941-01]', 'µM', '>', 120),
  ('Cc1c(C)n(Cc2ccc(-c3ccccc3C(=O)O)cc2)c2ccc(C(=O)N[C@@H](C)c3ccc([N+](=O)[O-])cc3)cc12 [NCGC00347955-04]', 'µM', '>', 120),
  ('Cc1ccc(Cl)cc1NC(=O)c1nc[nH]c1C(=O)Nc1nc2ccccc2[nH]1 [NCGC00244259-01]', 'µM', '=', 15.8),
  ('COC(=O)c1ccc2c(c1)S(=O)(=O)N=C2Sc1cc(C)ccc1C [NCGC00238687-01]', 'µM', '>', 120),
  ('O=Cc1c(-c2ccccc2)no[n+]1[O-] [NCGC00168371-01]', 'µM', '=', 17.7),
  ('Cl.NC(CO)(CO)CCc1ccc(Sc2cccc(OCc3ccccc3)c2)cc1Cl [NCGC00250388-02]', 'µM', '>', 120),
  ('Cc1ccc(S(=O)(=O)Nc2cnccc2C(=O)Nc2nc(-c3ccc(Cl)cc3)cs2)cc1.O=C(O)C(F)(F)F [NCGC00318981-01]', 'µM', '=', 28.2),
  ('COc1ccc2c(c1)C=C1Cn3c-2c(C2CCCCC2)c2ccc(cc23)C(=O)NS(=O)(=O)N(C)CCOCCN(C)C1=O [NCGC00482982-02]', 'µM', '>', 120),
  ('Cc1ccc(S(=O)(=O)Nc2cnccc2C(=O)Nc2nc(-c3ccc4c(c3)CCCC4)cs2)cc1.O=C(O)C(F)(F)F [NCGC00318953-01]', 'µM', '=', 35.5),
  ('O=C(O)C(F)(F)F.OCc1ccc(-c2ccc3ncnc(NCc4cccs4)c3c2)o1 [NCGC00189276-01]', 'µM', '>', 120),
  ('Cc1ccc(S(=O)(=O)Nc2cnccc2C(=O)Nc2nc(-c3cccc(Cl)c3)cs2)cc1.O=C(O)C(F)(F)F [NCGC00318956-01]', 'µM', '=', 20),
  ('O=C(O)C(F)(F)F.O=c1c2ccccc2nc2sc(NS(=O)(=O)c3ccc4c(c3)CCC4)nn12 [NCGC00187579-01]', 'µM', '>', 120),
  ('O=C(c1cccs1)c1no[n+]([O-])c1C(=O)c1cccs1 [NCGC00071855-04]', 'µM', '=', 31.6),
  ('O=C(O)C1=CC(=C(c2ccc(O)c(C(=O)O)c2)c2ccc(O)c(C(=O)O)c2)C=CC1=O [NCGC00015040-05]', 'µM', '>', 120),
  ('OCCN(CCO)c1nc(N2CCCCC2)c2nc(N(CCO)CCO)nc(N3CCCCC3)c2n1 [NCGC00015385-15]', 'µM', '=', 22.2),
  ('N#Cc1cnc(NS(=O)(=O)c2ccc(NC(=O)Cc3ccc(Cl)c(Cl)c3)cc2)s1.O=C(O)C(F)(F)F [NCGC00250147-02]', 'µM', '>', 120),
  ('Nc1c(S(=O)(=O)[O-])cc(Nc2ccc(Nc3nc(Cl)nc(Nc4ccc(S(=O)(=O)O)cc4)n3)c(S(=O)(=O)O)c2)c2c1C(=O)c1ccccc1C2=O.[Na+] [NCGC00162329-02]', 'µM', '=', 1.3),
  ('COc1nn(CSP(=S)(OC)OC)c(=O)s1 [NCGC00163724-03]', 'µM', '>', 120),
  ('CCc1oc2ccccc2c1C(=O)c1cc(Br)c(O)c(Br)c1 [NCGC00013895-08]', 'µM', '=', 12.6);

---

- tested_on: CIB1 and αIIb interaction (CIB1-GST : F-αIIb peptide) (Homo sapiens, UniProt Q99828)
- Construct: made in house; host or cells: BL-21 plus RIL cells (E. coli)
- Sequence (Q99828 whole entry): as above
- assay_comment: FP assay, 1536-well qHTS format (primary and confirmatory screen)
- Type: binding
- test_settings: confirmatory screen
Each entry belongs to exactly one class, chosen by where its Efficacy (%) (confirmatory screen) falls: low = under -70%, medium = from -70% up to -60%, high = -60% and over

INSERT INTO measurements (compound, tested_on, classification) VALUES
  ('O=C1NC(c2ccc(N3CCOCC3)cc2)(c2ccsc2)CC(O)=C1Sc1ccccc1Cl (centres unmarked) [NCGC00388532-05]', 'CIB1 and αIIb interaction (CIB1-GST : F-αIIb peptide) (Homo sapiens, UniProt Q99828)', 'high'),
  ('O=C(O)C(F)(F)F.O=S(=O)(Nc1nc2ccccc2s1)c1ccc(NCc2ccc(Br)cc2O)cc1 [NCGC00319026-01]', 'CIB1 and αIIb interaction (CIB1-GST : F-αIIb peptide) (Homo sapiens, UniProt Q99828)', 'high'),
  ('CN(C)CCCn1cc(C2=C(c3c[nH]c4ccccc34)C(=O)NC2=O)c2ccccc21 [NCGC00024760-07]', 'CIB1 and αIIb interaction (CIB1-GST : F-αIIb peptide) (Homo sapiens, UniProt Q99828)', 'medium'),
  ('Cl.Nc1cc(C(F)(F)F)ccc1S [NCGC00262926-01]', 'CIB1 and αIIb interaction (CIB1-GST : F-αIIb peptide) (Homo sapiens, UniProt Q99828)', 'low'),
  ('CN(C)c1ccc(NC(=S)N/N=C2\C(=O)Nc3ccccc32)cc1.O=C(O)C(F)(F)F [NCGC00229526-01]', 'CIB1 and αIIb interaction (CIB1-GST : F-αIIb peptide) (Homo sapiens, UniProt Q99828)', 'low'),
  ('Cl.O=[N+]([O-])c1ccc(CNc2ccc(S(=O)(=O)Nc3nccs3)cc2)c(O)c1 [NCGC00273519-01]', 'CIB1 and αIIb interaction (CIB1-GST : F-αIIb peptide) (Homo sapiens, UniProt Q99828)', 'medium'),
  ('CCOC(=O)c1[nH]c2c(c1C)C(=S)CC(c1ccco1)C2.O=C(O)C(F)(F)F (centres unmarked) [NCGC00238571-01]', 'CIB1 and αIIb interaction (CIB1-GST : F-αIIb peptide) (Homo sapiens, UniProt Q99828)', 'low'),
  ('CN1CCN(c2cccc(Nc3nn4c(=O)c5ccc(Br)cc5nc4s3)c2)CC1.Cl [NCGC00187814-01]', 'CIB1 and αIIb interaction (CIB1-GST : F-αIIb peptide) (Homo sapiens, UniProt Q99828)', 'medium'),
  ('C=CC1=C(C)c2cc3[nH]c(cc4nc(cc5[nH]c(cc1n2)c(C)c5CCC(=O)O)C(CCC(=O)O)=C4C)c(C)c3C=C [NCGC00015844-07]', 'CIB1 and αIIb interaction (CIB1-GST : F-αIIb peptide) (Homo sapiens, UniProt Q99828)', 'low'),
  ('Cl.O=S(=O)(Nc1nccs1)c1ccc(NCc2cc(Cl)ccc2O)cc1 [NCGC00273561-01]', 'CIB1 and αIIb interaction (CIB1-GST : F-αIIb peptide) (Homo sapiens, UniProt Q99828)', 'high');
